target: Metabotropic glutamate receptor 1 (Rattus norvegicus); assay: Inhibitory activity against Metabotropic glutamate receptor 1 in the rat LLC-PK1/HEK 293 cells; type: cell-based, HEK293
measure-name: pIC50
The meaning of pIC50 here: minus log10 of the concentration in molar units.

pIC50 for Metabotropic glutamate receptor 1 (Rattus norvegicus) with input N[C@H](C(=O)O)c1ccc(C(=O)O)c(O)c1 equals 4.40

###

target: Metabotropic glutamate receptor 1 (Rattus norvegicus, UniProt P23385); test: Inhibitory activity against Metabotropic glutamate receptor 1 in the rat LLC-PK1/HEK 293 cells.; assay type: cell-based, HEK293
Sequence (P23385 whole entry): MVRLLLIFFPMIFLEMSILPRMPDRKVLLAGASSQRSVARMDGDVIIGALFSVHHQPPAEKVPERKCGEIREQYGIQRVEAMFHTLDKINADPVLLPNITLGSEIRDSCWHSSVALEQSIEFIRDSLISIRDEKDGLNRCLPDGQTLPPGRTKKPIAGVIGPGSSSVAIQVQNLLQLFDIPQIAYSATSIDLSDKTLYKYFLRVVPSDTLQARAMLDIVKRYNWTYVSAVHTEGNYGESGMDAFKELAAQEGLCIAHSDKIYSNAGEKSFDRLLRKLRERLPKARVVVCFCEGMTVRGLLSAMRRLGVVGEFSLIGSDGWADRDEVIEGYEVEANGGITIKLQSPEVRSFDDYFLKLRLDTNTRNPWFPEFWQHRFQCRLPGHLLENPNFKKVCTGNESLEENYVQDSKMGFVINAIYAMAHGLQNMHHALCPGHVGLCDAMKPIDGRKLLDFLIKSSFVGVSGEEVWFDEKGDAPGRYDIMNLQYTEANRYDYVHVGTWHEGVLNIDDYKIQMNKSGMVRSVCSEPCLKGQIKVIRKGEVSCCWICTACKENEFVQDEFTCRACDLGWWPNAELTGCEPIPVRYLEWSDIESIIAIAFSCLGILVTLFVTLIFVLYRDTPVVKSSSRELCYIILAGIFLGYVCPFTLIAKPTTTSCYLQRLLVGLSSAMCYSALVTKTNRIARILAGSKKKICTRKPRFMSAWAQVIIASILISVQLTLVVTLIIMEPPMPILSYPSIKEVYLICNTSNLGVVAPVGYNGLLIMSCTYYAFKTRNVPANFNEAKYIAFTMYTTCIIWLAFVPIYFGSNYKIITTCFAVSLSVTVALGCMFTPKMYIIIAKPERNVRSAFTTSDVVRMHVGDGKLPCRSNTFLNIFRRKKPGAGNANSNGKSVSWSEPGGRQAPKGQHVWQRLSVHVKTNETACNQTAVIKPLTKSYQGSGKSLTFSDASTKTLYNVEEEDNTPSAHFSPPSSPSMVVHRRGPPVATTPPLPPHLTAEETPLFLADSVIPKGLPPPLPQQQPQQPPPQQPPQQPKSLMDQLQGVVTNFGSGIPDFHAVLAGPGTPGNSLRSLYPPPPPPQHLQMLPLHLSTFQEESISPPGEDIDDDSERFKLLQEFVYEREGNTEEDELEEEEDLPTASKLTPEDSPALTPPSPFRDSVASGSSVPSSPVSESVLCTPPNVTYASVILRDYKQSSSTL
measure-name: IC50

Please fill in: IC50 reported for N[C@@]1(C(=O)O)CC[C@H]2[C@H](C(=O)O)[C@H]21 = 458 µM

The reported value for NC1(C(=O)O)CC2CCC1C2C(=O)O (stereo in doubt; 8) in terms of IC50 is 300 µM

The molecule identified as N[C@H](C(=O)O)C12CC(C(=O)O)(C1)C2 registered its IC50 at 25 µM

Reported IC50 ( N[C@]1(C(=O)O)C[C@H](C(=O)O)[C@H](C(=O)O)C1 ) = 115 µM

So for NC1(C(=O)O)C2CCC1C(C(=O)O)C2 (stereo unspecified) , the logged IC50 turned out to be > 1000 µM

// IC50 value for N[C@H](C(=O)O)C1[C@@H](C(=O)O)[C@@H]1C(=O)O (stereo partly specified) : 389 µM

###

target: Metabotropic glutamate receptor 2 (Rattus norvegicus); assay: Ratio between EC50 of compound and glutamate measured against Metabotropic glutamate receptor 2; assay type: functional
measure-name: EC50 ratio
Form rule: numeric answer, no unit written next to it.

EC50 ratio recorded for this molecule, N[C@H](C(=O)O)[C@H]1C[C@@H]1C(=O)O , is 0.04

Query N[C@H](C(=O)O)c1ccc(C(=O)O)c(O)c1 yields EC50 ratio of 4

Please fill in: EC50 ratio reported for NC1(C(=O)O)CC2CC1C2C(=O)O (stereo in doubt; 13) = 186

Memo: N[C@@]1(C(=O)O)CC[C@H](C(=O)O)C1 , reported EC50 ratio: 1.2

Looking up N[C@@]1(C(=O)O)CN[C@@H](C(=O)O)C1 , I found its EC50 ratio recorded as 0.4

Lab note: NC1(C(=O)O)CC2CC1C2C(=O)O (stereo in doubt; 12) gave EC50 ratio of 1.1

Given item C[C@@H](C[C@H](N)C(=O)O)C(=O)O , the value recorded as its EC50 ratio is 0.3

Lookup result for C[C@H](CC(=O)O)[C@H](N)C(=O)O ; measured EC50 ratio: 12

Lab note: measured EC50 ratio of N[C@H](C(=O)O)C1[C@@H](C(=O)O)[C@@H]1C(=O)O (stereo partly drawn) was 0.03

Recorded EC50 ratio (molecule N[C@@]1(C(=O)O)CC[C@H]2[C@H](C(=O)O)[C@H]21 ): 0.004

// EC50 ratio value for N[C@]1(C(=O)O)CC[C@H](C(=O)O)C1 : 10

NC1(C(=O)O)CC2CC1C2C(=O)O (stereo in doubt; 14) yielded EC50 ratio of 131

Note to self: EC50 ratio recorded for CC(CC(N)C(=O)O)C(=O)O (racemic) was 0.53

Measured EC50 ratio of C[C@H](C[C@@H](N)C(=O)O)C(=O)O : 1.1

Value of measured EC50 ratio for the entry N[C@H](C(=O)O)c1cc(O)no1 : 25

Just so you know, measured EC50 ratio for C[C@H](C[C@H](N)C(=O)O)C(=O)O came out at 23

Form: molecule = C=C(CC(N)C(=O)O)C(=O)O (racemic) ; EC50 ratio = 0.4

The recorded EC50 ratio for entry C[C@@H](CC(=O)O)[C@H](N)C(=O)O equals 80

Briefly, EC50 ratio measured for N[C@@H](CCC(=O)O)C(=O)O : 1

Consider N[C@@]1(C(=O)O)CC[C@@H](C(=O)O)C1 . Its measured EC50 ratio is 1.6
